- Tested on: SW-620
- assay method text: NCI tumour cell line growth inhibition, 48 h
Activity calls are given as the source filed them. Cut-off read from the data, not from the text of the source: active = GI50 up to about 1.1 µM and inactive = higher. Residues, ends and D or L forms follow the SMILES beside them. *: point of attachment. Boc = CC(C)(C)OC(=O)*; OBn = c1ccc(CO*)cc1
Result category, one only: active, inactive

The following molecules have reported results that may help.
1) O=C1CCCC1C(O)(C(F)(F)F)C(F)(F)F (stereo not given); inactive
2) CCCCc1ccc(C#CC#Cc2ccc(CCCC)s2)s1; inactive
3) COc1ccc(OC)c(NC(=O)C(=O)C(C(C)=O)c2nc3ccc(Cl)cc3nc2O)c1 (stereo not given); inactive
4) COc1ccc(C(=O)Nc2ccc3oc(-c4ccccc4)nc3c2)cc1; inactive
5) COC(=O)C1=C(C)NC(C)=C(C(=O)OCCCN2CCC(c3ccccc3)(c3ccccc3)CC2)[C@H]1c1cccc([N+](=O)[O-])c1 [NIGULDIPINE]; inactive

Okay, next one:
Qu. What did the test return for CC(C)C(NC(=O)CNC(=O)C1CCCN1C(=O)C(NC(=O)OC(C)(C)C)C(C)C)C(=O)NCC(=O)OCc1ccccc1 (stereo not given) (Boc-VPGVG-OBn; configuration not given here) ?
Ans. inactive

----------
- Tested on: MOLT-4
- assay method text: NCI tumour cell line growth inhibition, 48 h
The source made the active and inactive calls. Cut-off read from the data, not from the text of the source: active = GI50 up to about 1.1 µM and inactive = higher.
Result category, one only: active, inactive

Qu. What did the test return for O=C(C(=O)N1CC2C=CC1CC2)c1c[nH]c2ccccc12 (stereo not given) ?
Ans. inactive

Qu. What did the test return for "C=CC[C@@H](N)C(=O)N(C)[C@@H](C)[C@@H](O)c1ccccc1" ?
Ans. inactive

Qu. What did the test return for "Cc1cc(N(CCC#N)CCC#N)ccc1/C=C1/CN(N2C(=O)/C(=C/c3ccc(N(CCC#N)CCC#N)cc3C)N=C2c2ccccc2)C(c2ccccc2)=N1" ?
Ans. inactive

Qu. What did the test return for "Cc1ccc2ccccc2c1CSc1nc(N)nc2c1ncn2CC(C)C" ?
Ans. inactive

Qu. What did the test return for CCCCCCC(O)CC[C@H]1CCC[C@@H](C)N1 (stereo not given in full) ?
Ans. inactive

Qu. What did the test return for "CC1=C(N2CC2)C(=O)C(C)=C(N2CC2)C1=O" ?
Ans. active

----------
Below is a list of entries, each paired with its recorded GI50 value.
- Tested on: IGROV-1
- assay method text: NCI tumour cell line growth inhibition, 48 h
Calls of active or inactive are those of the source. Cut-off read from the data, not from the text of the source: active = GI50 up to about 1.1 µM and inactive = higher.

1) CCSc1[nH]c(/N=C(/NC(=O)c2ccccc2)NC(C)C)c(C(N)=O)c1C(N)=O; > 10 µM (inactive)
2) Nn1c(CCCCCCCCc2nnc(COc3c(O)ccc4ccccc34)n2N)nnc1COc1c(O)ccc2ccccc12; > 100 µM (inactive)
3) CC1(C)O[C@@H](C[C@]2(C#N)C[C@H](CCl)OC(C)(C)O2)C[C@@H](C#N)O1; > 100 µM (inactive)

Moving on to the next compound.
Qu. For the compound COC(=O)C(=O)C(C(=O)C(=O)Nc1cc([N+](=O)[O-])ccc1[N+](=O)[O-])c1nc2ccc(C(=O)c3ccccc3)cc2nc1O (centres undefined) , what GI50 is on record?
Ans. 33.6 µM (inactive)

----------
- Test system: HOP-92
- assay method text: NCI tumour cell line growth inhibition, 48 h
Calls of active or inactive are those of the source. No stated cut-off is given here; in the data, active = GI50 up to about 1.1 µM and inactive = higher.
measurement kind: GI50

1) COc1cc(O)cc(/C=C/c2ccc(O)cc2)c1; 21.6 µM (inactive)

Qu. For the compound "C[C@@H]1CC[C@@]2(NC1)O[C@H]1C[C@H]3[C@@H]4CC[C@H]5C[C@@H](O)CC[C@]5(C)[C@H]4CC[C@]3(C)[C@H]1[C@@H]2C" , what GI50 is on record?
Ans. 93.5 µM (inactive)

Qu. For the compound COc1cc(C(c2ccccc2)N2C(=O)CC[C@H]2C(=O)O)cc(OC)c1OC (some centres undefined) , what GI50 is on record?
Ans. > 100 µM (inactive)

Qu. For the compound CC(=O)C1=C(C)N(c2ccccc2)C2(O)C3=C(C(=O)c4ccccc4C3=O)C(O)=CC12Cl (centres undefined) , what GI50 is on record?
Ans. 7.08 µM (inactive)

----------
- System: SR
- assay method text: NCI tumour cell line growth inhibition, 48 h
Active and inactive are the calls of the source. Rule as the data show it: active = GI50 up to about 1.1 µM and inactive = higher.
measurement kind: GI50

1. O=c1[nH]c2nc3ccccc3c(=O)n2/c1=C/c1ccc(Cl)cc1; > 100 µM (inactive)
2. CN(C)CCCN1c2ccc(O)cc2Sc2ccc(Cl)cc21 [7-HYDROXYCHLORPROMAZINE]; 2.96 µM (inactive)

Qu. Hi! What's the reported GI50 for "CC(C)Sc1nc(C#N)cc2c1CCCC2" on SR?
Ans. 20.7 µM (inactive)

Qu. Hi! What's the reported GI50 for "CSc1c(C#N)c(N)nc2c(/N=N\c3ccc(Br)cc3)c(N)nn12" on SR?
Ans. 2.55 µM (inactive)

Qu. Hi! What's the reported GI50 for "N=C(N)N/N=C/c1c(-c2ccc([N+](=O)[O-])cc2)nc2sccn12" on SR?
Ans. 1.73 µM (inactive)

Qu. Hi! What's the reported GI50 for O=C(O)C(C1NCCS1)N1C(=O)c2ccccc2C1=O (stereo unspecified) on SR?
Ans. > 100 µM (inactive)

----------
- System: SF-295
- assay method text: NCI tumour cell line growth inhibition, 48 h
Activity calls are given as the source filed them. Rule as the data show it: active = GI50 up to about 1.1 µM and inactive = higher.
Below is a list of entries, each paired with its recorded GI50 value.

Some solved entries appear below for comparison.
1) CCOC1(OCC)C2C=CC1C(COS(=O)(=O)c1ccc(C)cc1)C2COS(=O)(=O)c1ccc(C)cc1 (stereo not given); 96.6 µM (inactive)
2) OC1[C@H](O)CN(OCc2ccccc2)C[C@@H]1O (stereo not given in full); > 100 µM (inactive)
3) CCOC(=O)/C=C(\C(=O)OCC)n1cc(C)c(=O)n(Cc2cn(CCCCOC(C)=O)nn2)c1=O; 18.4 µM (inactive)

Qu. For the compound C=C(CCOC)CCC1CCCCC(=C)[C@H]1O (stereo not given in full) , what GI50 is on record?
Ans. > 100 µM (inactive)

Qu. For the compound COC1=CC(=O)c2c(O)c3c(c(O)c2C1=O)CC(C)(O)OC3 (stereo not given) , what GI50 is on record?
Ans. 3.12 µM (inactive)

----------
- Tested on: IGROV-1
- assay method text: NCI tumour cell line growth inhibition, 48 h
Activity calls are given as the source filed them. No stated cut-off is given here; in the data, active = GI50 up to about 1.1 µM and inactive = higher.
measurement kind: GI50

Some solved entries appear below for comparison.
1) CC(C)Oc1cccc(N2C(NCCc3c[nH]c4ccccc34)=Nc3ccncc3S2(=O)=O)c1; 41.7 µM (inactive)
2) O=C1CNc2cc(N3CCCCC3)ccc2N1; 13.9 µM (inactive)
3) C=C1C(=O)OC2CC(C)C3(O)CCC(=O)C3(C)CC12 (stereo not given); 23.8 µM (inactive)

Qu. Hi! What's the reported GI50 for "C=CC[C@@H](N)C(=O)N(C)[C@@H](C)[C@@H](O)c1ccccc1" on IGROV-1?
Ans. 82.8 µM (inactive)

----------
- Tested on: HOP-62
- assay method text: NCI tumour cell line growth inhibition, 48 h
Activity calls are given as the source filed them. Rule as the data show it: active = GI50 up to about 1.1 µM and inactive = higher.
measurement kind: GI50

1) Cc1cc(Nc2ccc(NS(C)(=O)=O)cc2)c2c(ccc3[nH]ccc32)n1; 19.4 µM (inactive)
2) Clc1ccc(Cc2nc3ccccc3nc2-c2cccc(Cl)c2)cc1; 17.8 µM (inactive)
3) CCn1cnc2c(NC(C)=O)ncnc21; > 100 µM (inactive)
4) Cc1ccccc1N/N=C1\C(=O)Nc2ccccc21; > 100 µM (inactive)
5) COc1cc(C2c3cc4c(cc3OC(O)C2C)OCO4)cc(OC)c1O (configuration not stated); 10.7 µM (inactive)

Qu. Hi! What's the reported GI50 for "CCCCSC1=N/C(=C\c2ccco2)C(=O)N1" on HOP-62?
Ans. > 100 µM (inactive)

Qu. Hi! What's the reported GI50 for COC(=O)C(=O)C(C(C)=O)C(=O)NCc1ccc(OC)c(OC)c1 (configuration not stated) on HOP-62?
Ans. > 100 µM (inactive)

----------
- Tested on: PC-3
- assay method text: NCI tumour cell line growth inhibition, 48 h
Calls of active or inactive are those of the source. Cut-off read from the data, not from the text of the source: active = GI50 up to about 1.1 µM and inactive = higher.
Result category, one only: t for active, f for inactive

1. CCCCCCCCCCCCCCCCC(=O)NCC(=O)NCC(=O)NC(Cc1ccccc1)C(=O)Oc1ccc([N+](=O)[O-])cc1 (centres undefined); f
2. Cc1ccc(NC(=O)COc2ccc(Cl)cc2)cc1Cl; f
3. CN1CCN(c2ccc3[nH]c(-c4ccc5[nH]c(-c6ccc(N(C)CCCl)cc6)nc5c4)nc3c2)CC1; t
4. COC(=O)C1=C(C)NC(C)=C(C(=O)OCCCN2CCC(c3ccccc3)(c3ccccc3)CC2)[C@H]1c1cccc([N+](=O)[O-])c1; f
5. O=C1/C(=C/c2ccco2)N=C(c2ccccc2)N1c1ccc(S(=O)(=O)Nc2nccs2)cc1; f

Qu. What did the test return for "Cc1nc(N(C(C)C)C(C)C)c(C(C)C)o1" ?
Ans. f

Qu. What did the test return for "O=c1ccc2ccc(O)cc2o1" ?
Ans. f

Qu. What did the test return for "CCCCSC1=N/C(=C\c2ccco2)C(=O)N1" ?
Ans. f

Qu. What did the test return for "Cc1cc(Nc2ccc(NS(C)(=O)=O)cc2)c2c(ccc3[nH]ccc32)n1" ?
Ans. f
